test: Selectivity index, ratio of CC50 for human C8166 cells to EC50 for HIV1; type: functional

{"molecule": "CC(=O)OC(C)(C)/C=C/C(=O)[C@](C)(O)[C@H]1[C@H](O)C[C@@]2(C)[C@@H]3CC=C4[C@H](C[C@H](O)C(=O)C4(C)C)[C@]3(C)C(=O)C[C@]12C", "Ratio CC50/EC50": 16.7}
{"molecule": "CC(=O)OC(C)(C)CCC(=O)[C@](C)(O)[C@H]1[C@H](O)C[C@@]2(C)[C@@H]3CC=C4[C@@H](C=C(O)C(=O)C4(C)C)[C@]3(C)C(=O)C[C@]12C", "Ratio CC50/EC50": 9.2}
{"molecule": "CC(C)(O)/C=C/C(=O)[C@](C)(O)[C@H]1[C@H](O)C[C@@]2(C)[C@@H]3CC=C4[C@@H](C=C(O)C(=O)C4(C)C)[C@]3(C)C(=O)C[C@]12C", "Ratio CC50/EC50": 20.6}
{"molecule": "Cc1cn([C@H]2C[C@H](N=[N+]=[N-])[C@@H](CO)O2)c(=O)[nH]c1=O", "Ratio CC50/EC50": ">50000"}
{"molecule": "CC(C)(O)/C=C/C[C@@](C)(O)[C@H]1[C@H](O)C[C@@]2(C)[C@@H]3CC=C4[C@@H](C[C@H](O)C(=O)C4(C)C)[C@]3(C)C(=O)C[C@]12C", "Ratio CC50/EC50": 7.7}
{"molecule": "CC(C)(O)CCC(=O)[C@@](C)(O)[C@H]1[C@H](O)C[C@@]2(C)[C@@H]3CC=C4[C@@H](C[C@H](O)C(=O)C4(C)C)[C@]3(C)C(=O)C[C@]12C", "Ratio CC50/EC50": 50}
{"molecule": "CC1(C)C(=O)[C@@H](O)C[C@@H]2C1=CC[C@@H]1[C@@]2(C)C(=O)C[C@]2(C)CC(=O)C[C@@]12C", "Ratio CC50/EC50": ">6.3"}
{"molecule": "CC1(C)C(=O)C(O)=C[C@@H]2C1=CC[C@@H]1[C@@]2(C)C(=O)C[C@]2(C)CC(=O)C[C@@]12C", "Ratio CC50/EC50": 5}
{"molecule": "CC(=O)OC(C)(C)CCC(=O)[C@](C)(O)[C@H]1[C@H](O)C[C@@]2(C)[C@@H]3CC=C4[C@@H](C[C@H](O)C(=O)C4(C)C)[C@]3(C)C(=O)C[C@]12C [23,24-DIHYDROCUCURBITACIN B]", "Ratio CC50/EC50": 6.1}

====

assay: Cytotoxicity against human C8166 cells by MTT method; type: cell-based

{"chemical.structure": "CC(=O)OC(C)(C)CCC(=O)[C@](C)(O)[C@H]1[C@H](O)C[C@@]2(C)[C@@H]3CC=C4[C@@H](C=C(O)C(=O)C4(C)C)[C@]3(C)C(=O)C[C@]12C", "qualifier.sign": "=", "CC50, µg/mL": 21.6}
{"chemical.structure": "CC(C)(O)CCC(=O)[C@@](C)(O)[C@H]1[C@H](O)C[C@@]2(C)[C@@H]3CC=C4[C@@H](C[C@H](O)C(=O)C4(C)C)[C@]3(C)C(=O)C[C@]12C", "qualifier.sign": "=", "CC50, µg/mL": 6.5}
{"chemical.structure": "CC1(C)C(=O)[C@@H](O)C[C@@H]2C1=CC[C@@H]1[C@@]2(C)C(=O)C[C@]2(C)CC(=O)C[C@@]12C", "qualifier.sign": ">", "CC50, µg/mL": 200}
{"chemical.structure": "Cc1cn([C@H]2C[C@H](N=[N+]=[N-])[C@@H](CO)O2)c(=O)[nH]c1=O", "qualifier.sign": ">", "CC50, µg/mL": 200}
